Just for reference, PubChem BioAssay (NCI) is where these values come from.

# Tested on: ACHN renal
# Experiment: NCI tumour cell line growth inhibition, 48 h
TGI for assorted compounds

INSERT INTO measurements (compound, measurement) VALUES
  ('Nc1c(Cl)ncnc1NCC1(CO)CCC1', '> 100 µM'),
  ('CCOC(=O)n1c2ccccc2c2c(O)c(OC)c3c(c21)C(=O)NC3=O', '> 100 µM');

IN: Look up TGI of CCOC(=O)C(C(N)=O)c1nc2cc([N+](=O)[O-])ccc2nc1/C=C(\O)c1ccc(C)cc1 (configuration not stated) and report it.
OUT: > 52.6 µM

IN: Look up TGI of CCCCc1c2c(nc3c1CCc1cc(C=O)c(N)nc1-3)/C(=C/c1ccccc1)CCC2 and report it.
OUT: > 100 µM
